# TARGET: β-Secretase (BACE-1) (Homo sapiens (Human), UniProt P56817)
# Sequence (P56817 46-501): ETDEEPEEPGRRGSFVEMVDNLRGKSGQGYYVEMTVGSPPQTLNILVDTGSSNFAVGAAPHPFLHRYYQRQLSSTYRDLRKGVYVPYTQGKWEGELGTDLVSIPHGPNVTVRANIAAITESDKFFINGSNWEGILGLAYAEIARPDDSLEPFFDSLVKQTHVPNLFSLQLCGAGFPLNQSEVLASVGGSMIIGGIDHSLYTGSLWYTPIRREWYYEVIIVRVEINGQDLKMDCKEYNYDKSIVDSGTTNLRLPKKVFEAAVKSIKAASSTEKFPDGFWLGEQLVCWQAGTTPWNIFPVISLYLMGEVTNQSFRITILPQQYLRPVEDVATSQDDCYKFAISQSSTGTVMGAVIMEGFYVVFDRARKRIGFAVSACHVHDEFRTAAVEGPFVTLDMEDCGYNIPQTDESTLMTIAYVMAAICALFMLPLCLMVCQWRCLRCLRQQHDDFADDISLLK
# PROTOCOL NOTES: β-Secretase (BACE-1) inhibition assay
# Format: biochemical
Counter-ions that a name gives are not always drawn.

- COMPOUND: "CC1=CC2Cc3nc4cc(Cl)ccc4c(NCCCCCCCCCCCNC(=O)c4cc(O)c5c(c4)C(=O)c4cccc(O)c4C5=O)c3C(C1)C2 (racemic) [(±)-(Id)•HCl]"
  DISPLAY UNIT: "µM"
  IC50: 1.2
- COMPOUND: "CC1=CC2Cc3nc4cc(Cl)ccc4c(NCCCCCCCCNC(=O)c4cc(O)c5c(c4)C(=O)c4cccc(O)c4C5=O)c3C(C1)C2 (racemic) [(±)-(Ia)•HCl]"
  DISPLAY UNIT: "µM"
  IC50: 0.98
- COMPOUND: "CC1=CC2Cc3nc4cc(Cl)ccc4c(NCCCCCCCCCNC(=O)c4cc(O)c5c(c4)C(=O)c4cccc(O)c4C5=O)c3C(C1)C2 (racemic) [(±)-(Ib)•HCl]"
  DISPLAY UNIT: "µM"
  IC50: 0.12
- COMPOUND: "CC1=CC2Cc3nc4cc(Cl)ccc4c(NCCCCCCCCCCNC(=O)c4cc(O)c5c(c4)C(=O)c4cccc(O)c4C5=O)c3C(C1)C2 (racemic) [(±)-(Ic)•HCl]"
  DISPLAY UNIT: "µM"
  IC50: 1.19
- COMPOUND: "CC1=CC2Cc3nc4cc(Cl)ccc4c(NCc4ccc(CNC(=O)c5cc(O)c6c(c5)C(=O)c5cccc(O)c5C6=O)cc4)c3C(C1)C2 (racemic) [(±)-(Ie)•HCl]"
  DISPLAY UNIT: "µM"
  IC50: 2.02

----------
# TARGET: Electrophorus electricus (ee) AChE (Electrophorus electricus (Electric eel) (Gymnotus electricus), UniProt O42275)
# Sequence (O42275 whole entry, looked up): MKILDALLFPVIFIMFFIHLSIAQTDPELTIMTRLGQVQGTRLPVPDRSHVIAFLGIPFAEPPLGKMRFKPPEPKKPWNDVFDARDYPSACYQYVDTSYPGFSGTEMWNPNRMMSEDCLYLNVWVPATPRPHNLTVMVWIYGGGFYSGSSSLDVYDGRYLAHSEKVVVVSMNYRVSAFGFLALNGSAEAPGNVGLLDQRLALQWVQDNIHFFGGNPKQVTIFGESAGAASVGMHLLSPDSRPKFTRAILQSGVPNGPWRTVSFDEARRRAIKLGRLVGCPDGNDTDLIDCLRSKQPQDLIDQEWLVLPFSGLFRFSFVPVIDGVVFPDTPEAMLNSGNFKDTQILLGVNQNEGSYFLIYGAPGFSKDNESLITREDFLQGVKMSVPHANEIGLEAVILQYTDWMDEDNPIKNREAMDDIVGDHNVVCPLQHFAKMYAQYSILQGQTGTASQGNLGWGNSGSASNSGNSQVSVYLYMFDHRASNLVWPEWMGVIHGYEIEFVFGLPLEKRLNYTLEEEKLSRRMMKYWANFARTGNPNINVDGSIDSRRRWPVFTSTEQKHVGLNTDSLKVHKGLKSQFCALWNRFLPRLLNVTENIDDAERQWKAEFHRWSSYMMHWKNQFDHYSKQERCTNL
# PROTOCOL NOTES: AChE inhibition assay (Ellman), eeAChE
# Format: biochemical
# CONDITION LABEL: read-out: IC50 eeAChE
pIC50: −log10 of the molar value. Counter-ions that a name gives are not always drawn.
This section presents compounds with their documented pIC50 values.
REPORTED PROPERTY: pIC50

- COMPOUND: "CC1=CC2Cc3nc4cc(Cl)ccc4c(NCc4ccc(CNC(=O)c5cc(O)c6c(c5)C(=O)c5cccc(O)c5C6=O)cc4)c3C(C1)C2 (racemic) [(±)-(Ie)•HCl]"
  MEASURED RESULT: 7.22
- COMPOUND: "CC1=C[C@@H]2Cc3nc4cc(Cl)ccc4c(N)c3[C@H](C1)C2.Cl [(−)-Huprine Y•HCl, huprine Y, reference compound]"
  MEASURED RESULT: 10.22
- COMPOUND: "CC1=C[C@@H]2Cc3nc4cc(Cl)ccc4c(N)c3[C@H](C1)C2.Cl [(+)-Huprine Y•HCl, huprine Y, reference compound]"
  MEASURED RESULT: 6.43
- COMPOUND: "CC1=CC2Cc3nc4cc(Cl)ccc4c(NCCCCCCCCCCCNC(=O)c4cc(O)c5c(c4)C(=O)c4cccc(O)c4C5=O)c3C(C1)C2 (racemic) [(±)-(Id)•HCl]"
  MEASURED RESULT: 7.79

----------
# TARGET: human serum BChE (Homo sapiens (Human))
# Sequence (P06276 29-602): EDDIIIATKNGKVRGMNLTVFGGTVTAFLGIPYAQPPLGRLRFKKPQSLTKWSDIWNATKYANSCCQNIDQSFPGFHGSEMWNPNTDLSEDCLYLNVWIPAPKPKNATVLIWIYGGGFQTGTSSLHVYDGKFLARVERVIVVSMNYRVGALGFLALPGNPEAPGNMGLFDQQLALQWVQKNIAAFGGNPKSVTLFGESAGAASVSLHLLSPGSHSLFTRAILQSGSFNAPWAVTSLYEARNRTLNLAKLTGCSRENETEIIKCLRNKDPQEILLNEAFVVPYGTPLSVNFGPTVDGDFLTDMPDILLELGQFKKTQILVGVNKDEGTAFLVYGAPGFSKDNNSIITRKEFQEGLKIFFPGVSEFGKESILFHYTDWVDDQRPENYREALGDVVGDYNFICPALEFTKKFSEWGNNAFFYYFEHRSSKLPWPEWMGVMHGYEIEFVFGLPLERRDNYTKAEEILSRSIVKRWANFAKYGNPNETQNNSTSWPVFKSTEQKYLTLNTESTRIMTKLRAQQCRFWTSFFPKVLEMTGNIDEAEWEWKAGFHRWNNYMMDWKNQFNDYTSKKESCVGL
# PROTOCOL NOTES: BChE inhibition assay (Ellman)
# Format: biochemical
# CONDITION LABEL: read-out: IC50 hBChE
This section presents molecules with their documented IC50 values.

- MOLECULE: "CC1=C[C@@H]2Cc3nc4cc(Cl)ccc4c(N)c3[C@H](C1)C2.Cl [(−)-Huprine Y•HCl, huprine Y, reference compound]"
  IC50 (nM): 222
- MOLECULE: "O=C(O)c1cc(O)c2c(c1)C(=O)c1cccc(O)c1C2=O [Rhein, rhein, reference compound]"
  IC50 (nM): 17000
- MOLECULE: "CC1=C[C@@H]2Cc3nc4cc(Cl)ccc4c(N)c3[C@H](C1)C2.Cl [(+)-Huprine Y•HCl, huprine Y, reference compound]"
  IC50 (nM): 170

----------
# TARGET: β-Secretase (BACE-1) (Homo sapiens (Human), UniProt P56817)
# PROTOCOL NOTES: β-Secretase (BACE-1) inhibition assay
# Assay type: biochemical
# CONDITION LABEL: read-out: BACE-1 IC50
Counter-ions that a name gives are not always drawn.
This section presents compounds with their documented IC50 values.

- COMPOUND: "CC1=C[C@H]2Cc3nc4cc(Cl)ccc4c(NCCCCCCCCCNC(=O)c4cc(O)c5c(c4)C(=O)c4cccc(O)c4C5=O)c3[C@@H](C1)C2 [(+)-(Ib)•HCl]"
  IC50: "80 nM"
- COMPOUND: "CC1=C[C@@H]2Cc3nc4cc(Cl)ccc4c(N)c3[C@H](C1)C2.Cl [(+)-Huprine Y•HCl, huprine Y, reference compound]"
  IC50: "> 5000 nM"
- COMPOUND: "CC1=C[C@@H]2Cc3nc4cc(Cl)ccc4c(N)c3[C@H](C1)C2.Cl [(−)-Huprine Y•HCl, huprine Y, reference compound]"
  IC50: "> 5000 nM"
- COMPOUND: "CC1=C[C@@H]2Cc3nc4cc(Cl)ccc4c(NCCCCCCCCCNC(=O)c4cc(O)c5c(c4)C(=O)c4cccc(O)c4C5=O)c3[C@H](C1)C2 [(−)-(Ib)•HCl]"
  IC50: "80 nM"

----------
# TARGET: Aβ1-42 (Homo sapiens)
# PROTOCOL NOTES: Aβ1-42 self-aggregation inhibition assay (thioflavin T)
# Format: biochemical
# CONDITION LABEL: inhibitor 10 μM, [Aβ]/[I]=5/1
# Method: As reported in a previously published protocol (cf. M. Bartolini et al., “Insight into the Kinetic of Amyloid Beta (1-42) Peptide Self-Aggregation: Elucidation of Inhibitors' Mechanism of Action. ChemBioChem 2007, vol. 8, pp. 2152-2161), HFIP pretreated Aβ1-42 samples (Bachem AG, Switzerland) were solubilized with a CH3CN/0.3 mM Na2CO3250 mM NaOH (48.4:48.4:3.2) mixture to obtain a 500 μM solution. […]
Where a name gives a salt, the structure may show the parent alone.
Binary call on Aβ1-42 self-induced aggregation (%): yes (1) from 30% upward, no (0) beneath that.

- MOLECULE: "CC1=C[C@@H]2Cc3nc4cc(Cl)ccc4c(N)c3[C@H](C1)C2.Cl [(−)-Huprine Y•HCl, huprine Y, reference compound]"
  LABEL CLASS: "no (0)"
- MOLECULE: "CC1=CC2Cc3nc4cc(Cl)ccc4c(NCCCCCCCCNC(=O)c4cc(O)c5c(c4)C(=O)c4cccc(O)c4C5=O)c3C(C1)C2 (racemic) [(±)-(Ia)•HCl]"
  LABEL CLASS: "yes (1)"
- MOLECULE: "CC1=CC2Cc3nc4cc(Cl)ccc4c(NCCCCCCCCCCNC(=O)c4cc(O)c5c(c4)C(=O)c4cccc(O)c4C5=O)c3C(C1)C2 (racemic) [(±)-(Ic)•HCl]"
  LABEL CLASS: "yes (1)"
- MOLECULE: "CC1=CC2Cc3nc4cc(Cl)ccc4c(NCCCCCCCCCNC(=O)c4cc(O)c5c(c4)C(=O)c4cccc(O)c4C5=O)c3C(C1)C2 (racemic) [(±)-(Ib)•HCl]"
  LABEL CLASS: "yes (1)"
- MOLECULE: "CC1=C[C@@H]2Cc3nc4cc(Cl)ccc4c(NCCCCCCCCCNC(=O)c4cc(O)c5c(c4)C(=O)c4cccc(O)c4C5=O)c3[C@H](C1)C2 [(−)-(Ib)•HCl]"
  LABEL CLASS: "yes (1)"
- MOLECULE: "CC1=CC2Cc3nc4cc(Cl)ccc4c(NCCCCCCCCCCCNC(=O)c4cc(O)c5c(c4)C(=O)c4cccc(O)c4C5=O)c3C(C1)C2 (racemic) [(±)-(Id)•HCl]"
  LABEL CLASS: "yes (1)"
- MOLECULE: "CC1=C[C@@H]2Cc3nc4cc(Cl)ccc4c(N)c3[C@H](C1)C2.Cl [(+)-Huprine Y•HCl, huprine Y, reference compound]"
  LABEL CLASS: "no (0)"
- MOLECULE: "CC1=CC2Cc3nc4cc(Cl)ccc4c(NCc4ccc(CNC(=O)c5cc(O)c6c(c5)C(=O)c5cccc(O)c5C6=O)cc4)c3C(C1)C2 (racemic) [(±)-(Ie)•HCl]"
  LABEL CLASS: "yes (1)"
- MOLECULE: "CC1=C[C@H]2Cc3nc4cc(Cl)ccc4c(NCCCCCCCCCNC(=O)c4cc(O)c5c(c4)C(=O)c4cccc(O)c4C5=O)c3[C@@H](C1)C2 [(+)-(Ib)•HCl]"
  LABEL CLASS: "yes (1)"
